All values here come from patent US8779157B2.

- Test system: mGluR4 (UniProt Q14833)
- Assay comment: mGluR4 potentiation assay (fluorescence, Ca2+ or thallium/GIRK readout; EC20 agonist)
- Run conditions: half maximal effective concentration for mGluR4 potentiation; species of receptor not given
Parameter: EC50 (nM)
Form entry: value (nM) — number only.

Returns the measured EC50 for the input molecule. Input: O=C(Nc1ccc(N2C(=O)NC3(CC4CCC3C4)C2=O)c(Cl)c1)c1ccccn1 (centres unmarked) [Example 1.3.53]
217

GET /values?readout=EC50&item= CC12CCCCN1C(=S)N(c1ccc(NC(=O)c3ccccn3)cc1Cl)C2=O (centres unmarked) [Example 1.3.49]
185

What value of EC50 has been recorded for this entry: O=C(Nc1ccc(N2C(=O)C3CCCCN3C2=S)c(Cl)c1)c1cnccn1 (centres unmarked) [Example 1.3.76]
5040

What value of EC50 has been reported for the following molecule? O=C(Nc1ccc(N2C(=O)C3COCCN3C2=S)c(Cl)c1)c1cscn1 (centres unmarked) [Example 1.3.35]
1490

I have this molecule here, O=C(Nc1ccc(N2C(=O)C3COCCN3C2=S)c(Cl)c1)c1cccc(F)n1 (centres unmarked) [Example 1.3.38] , and I need its recorded EC50.
933

May I ask what EC50 has been recorded for O=C(Nc1ccc(N2C(=O)C3CSCCN3C2=O)c(Cl)c1)c1cccc(F)n1 (centres unmarked) [Example 1.3.42] ?
1170

Please look up its EC50: CC12CCCCN1C(=O)N(c1ccc(NC(=O)c3ncccc3F)cc1Cl)C2=O (centres unmarked) [Example 1.3.91]
3790

For the molecule CC12CCCCN1C(=O)N(c1ccc(NC(=O)c3cccc(F)n3)cc1Cl)C2=O (centres unmarked) [Example 1.3.90] , what EC50 is on record?
1120

----------
- Test system: mGluR4 (UniProt Q14833)
- Assay comment: mGluR4 potentiation assay (fluorescence, Ca2+ or thallium/GIRK readout; EC20 agonist)
- Run conditions: half maximal effective concentration for mGluR4 potentiation; species of receptor not given
Parameter: pEC50
pEC50 field: float, defined as -log10 of concentration (mol/L).

Any idea what pEC50 was measured for CC12CCCCN1C(=S)N(c1ccc(NC(=O)c3cccc(F)n3)cc1Cl)C2=O (centres unmarked) ?
6.33

What measured pEC50 goes with O=C(Nc1ccc(N2C(=O)NC3(CCC(c4ccccc4)CC3)C2=O)c(Cl)c1)c1ccccn1 (centres unmarked) ?
5.67

I would be grateful if you could share the reported pEC50 for O=C(Nc1ccc(N2C(=O)C3CCCCN3C2=S)c(Cl)c1)c1ccc(Cl)o1 (centres unmarked) .
5.55

Sample COc1cc(NC(=O)c2ccccn2)ccc1N1C(=O)N[C@@](C)(Cc2ccc(F)cc2)C1=O — what was its pEC50?
5.98

Which pEC50 value belongs to CC(C)(C)OC(=O)N1CCN2C(=O)N(c3ccc(NC(=O)c4ccccn4)cc3Cl)C(=O)C2C1 (centres unmarked) ?
6.12

Any idea what its pEC50 is? The compound is CC(C)C[C@]1(C)NC(=O)N(c2ccc(NC(=O)c3ccccn3)cc2Cl)C1=O
5.44

Which pEC50 is listed for CC(C)N1C(=O)N(c2ccc(NC(=O)c3ccccn3)cc2Cl)C(=O)[C@@H]1C(C)(C)C ?
6.70

Value lookup for pEC50; key = O=C(Nc1ccc(N2C(=O)NC3(CCCC3)C2=O)c(Cl)c1)c1ccccn1
6.10

----------
Consider the following compounds; for each one, report its EC50.
- Test system: UniProtKB Q14833
- Assay comment: mGluR4 potentiation assay (fluorescence, Ca2+ or thallium/GIRK readout; EC20 agonist)
- Type: cell-based, human / rat
- Run conditions: half maximal effective concentration for mGluR4 potentiation; species of receptor not given
- Excerpt: The disclosed compounds and compositions can be evaluated for their ability to act as a potentiator of metabotropic glutamate receptor activity, in particular mGluR4 activity, by any suitable known methodology known in the art. […] The cells were loaded with either a Ca2+-sensitive fluorescent dye or the thallium responsive dye and the plates were washed and placed into a suitable kinetic plate reader. […]
Dear colleague, please return just the value in nM, with no unit written.

For the compound O=C(Nc1ccc(N2C(=O)C3CCCCN3C2=S)c(Cl)c1)c1cccc(Cl)n1 (stereo not drawn) [Example 1.3.75] , what EC50 is on record?
3260

Looking for the measured EC50 of O=C(Nc1ccc(N2C(=O)C3CCCCN3C2=S)c(Cl)c1)c1ccsc1 (stereo not drawn) [Example 1.3.78] , can you help?
1790

Dear colleague, I am looking for the recorded EC50 of the following compound: CC(C)(C)[C@@H]1NC(=O)N(c2ccc(NC(=O)c3ccccn3)cc2Cl)C1=O [Example 1.3.57]
200

EC50 lookup needed for O=C(Nc1ccc(N2C(=O)C3COCCN3C2=O)c(Cl)c1)c1cccc(Cl)n1 (stereo not drawn) [Example 1.3.23] , thanks.
4830

Suppose we examine the compound C[C@@]1(Cc2ccccc2)NC(=O)N(c2ccc(NC(=O)c3nccs3)cc2Cl)C1=O [Example 1.3.67] ; what EC50 value has been reported?
6110

Given O=C(Nc1ccc(N2C(=O)C3CCCCN3C2=S)c(Cl)c1)c1ncc(F)cc1F (stereo not drawn) [Example 1.3.81] , state its recorded EC50.
876

Given the compound O=C(Nc1ccc(N2C(=O)NC3(CCCCC3)C2=O)c(Cl)c1)c1ccccn1 [Example 1.3.12] , what is its reported EC50?
229

Given CC12CCCCN1C(=S)N(c1ccc(NC(=O)c3ncc(F)cc3F)cc1Cl)C2=O (stereo not drawn) [Example 1.3.96] , state its recorded EC50.
295

Recorded EC50 for O=C(Nc1ccc(N2C(=O)C3CSCCN3C2=O)c(Cl)c1)c1cscn1 (stereo not drawn) [Example 1.3.43] , please?
3760

Give the measured EC50 of CN1C(=O)N(c2ccc(NC(=O)c3ccccn3)cc2Cl)C(=O)C12CCCCC2 [Example 1.3.52] .
178

For CS(=O)(=O)N1CCN2C(=O)N(c3ccc(NC(=O)c4ccccn4)cc3Cl)C(=O)C2C1 (stereo not drawn) [Example 1.3.47] , what is its reported EC50?
4710

For the compound shown here, O=C(Nc1ccc(N2C(=O)NC3(CCCCC3)C2=O)c(C(F)(F)F)c1)c1ccccn1 [Example 1.3.50] , give the reported EC50.
454

What value of measured EC50 is listed for O=C(Nc1ccc(N2C(=O)NC3(CCC3)C2=O)c(Cl)c1)c1ccccn1 [Example 1.3.14] ?
1280

Need EC50 of O=C(Nc1ccc(N2C(=O)C3CCCCN3C2=S)c(Cl)c1)c1cscn1 (stereo not drawn) [Example 1.3.80] , thanks.
1970

Fill blank: measured EC50 of the compound CC12CCCCN1C(=O)N(c1ccc(NC(=O)c3cscn3)cc1Cl)C2=O (stereo not drawn) [Example 1.3.87] is ____.
2670

What does the data say about its EC50? Entry: CC(C)C[C@@]1(C)NC(=O)N(c2ccc(NC(=O)c3ccccn3)cc2Cl)C1=O [Example 1.3.17]
1500

So what's the measured EC50 for this one? C[C@]1(Cc2ccccc2)NC(=O)N(c2ccc(NC(=O)c3ccccn3)cc2Cl)C1=O [Example 1.3.19]
840

Recorded EC50 for O=C(Nc1ccc(N2C(=O)C3CCCCN3C2=O)c(Cl)c1)c1ccccn1 (stereo not drawn) [Example 1.3.2] , please?
814

What does the data say about its EC50? Entry: CN1C(=O)N(c2ccc(NC(=O)c3ccccn3)cc2Cl)C(=O)[C@]1(C)Cc1ccc(F)cc1 [Example 1.3.62]
217

Report EC50 for O=C(Nc1ccc(N2C(=O)C3CCCCN3C2=O)cc1)c1ccccn1 (stereo not drawn) [Example 1.3.3] please.
3120

Looking for the measured EC50 of O=C(Nc1ccc(N2C(=O)C3CCCCN3C2=S)c(Cl)c1)c1cccc(F)n1 (stereo not drawn) [Example 1.3.83] , can you help?
354

# query: EC50 of entry O=C(Nc1ccc(N2C(=O)C3CCCCN3C2=O)c(Cl)c1)c1ccc(Cl)o1 (stereo not drawn) [Example 1.3.8]
6200

What value of EC50 has been reported for the following compound? CC12CCCCN1C(=O)N(c1ccc(NC(=O)c3ncc(F)cc3F)cc1Cl)C2=O (stereo not drawn) [Example 1.3.88]
1100

Fill in: EC50 of COc1cccc(C(=O)Nc2ccc(N3C(=O)N[C@@](C)(Cc4ccccc4)C3=O)c(Cl)c2)n1 [Example 1.3.68] is ___
5880

What does the data say about its EC50? Entry: O=C(Nc1ccc(N2C(=O)C3CCCCN3C2=S)c(Cl)c1)c1ncccc1F (stereo not drawn) [Example 1.3.84]
993

Endpoint output: EC50 of O=C(Nc1ccc(N2C(=O)C3COCCN3C2=O)c(Cl)c1)c1ccccn1 (stereo not drawn) [Example 1.3.21] . Value?
2180

Can you look up the measured EC50 of O=C(Nc1ccc(N2C(=O)C3COCCN3C2=O)c(Cl)c1)c1cccs1 (stereo not drawn) [Example 1.3.24] for me?
9500

What value of EC50 has been reported for the following compound? CN1C(=O)N(c2ccc(NC(=O)c3ccccn3)cc2Cl)C(=O)C12CC1CCC2C1 (stereo not drawn) [Example 1.3.54]
325

I am curious: what EC50 value has been reported for CN1C(=O)N(c2ccc(NC(=O)c3ccccn3)cc2Cl)C(=O)[C@]1(C)Cc1ccccc1 [Example 1.3.64] ?
197

Value lookup for EC50; key = O=C(Nc1ccc(N2C(=O)C3COCCN3C2=O)c(Cl)c1)c1cscn1 (stereo not drawn) [Example 1.3.26]
6110

Return reported EC50; argument: CC(=O)N1CCN2C(=O)N(c3ccc(NC(=O)c4ccccn4)cc3Cl)C(=O)C2C1 (stereo not drawn) [Example 1.3.72]
4510

Consider the compound shown here: CC1(C)NC(=O)N(c2ccc(NC(=O)c3ccccn3)cc2Cl)C1=O [Example 1.3.18] What is its recorded EC50?
4210

For the compound O=C(Nc1ccc(N2C(=O)C3CCCCN3C2=S)c(Cl)c1)c1cccs1 (stereo not drawn) [Example 1.3.77] , what EC50 is on record?
2780
